assay: chemical genetic growth profiling, strain panel (AID 1159580);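 further: tested at 20 µM; growth read once vehicle control cultures reached saturation at 30 °C; 1 = growth at the plate median or of vehicle wells; lower values mean less growth of the strain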; settings: S. cerevisiae deletion strains, growth OD, locus YGR078C, strain PAC10, stronger effect = lower value
Hit rate of the full screen: of about 5,500 compounds, about 2,000 (36%) were called active. Another 18% or so got no clear call; they are omitted. Some of the results follow.
# normalized growth per record follows
quantity: normalized growth

{"columns": ["compound", "observed.measurement"],
 "data": [
  ["COc1cc2c(CCNC(C)=O)c[nH]c2cc1O", "1 (inactive)"],
  ["Brc1cccc(C=NCc2ccccc2)c1", "0.847 (active)"],
  ["CC(C)=CC1C(C(=O)OCc2cccc(Oc3ccccc3)c2)C1(C)C (stereo unspecified)", "1.01 (inactive)"],
  ["COc1cc2c(CCNC(C)=O)c[nH]c2cc1Cl", "1.01 (inactive)"],
  ["O=c1[nH]c2cc(C(F)(F)F)ccc2n1-c1cc(C(F)(F)F)ccc1O", "1.03 (inactive)"],
  ["CC1[C@H](C)OC(=O)CC(O)CC(O)CC(O)CCC(O)C(O)C[C@]2(O)CC(O)C(C(=O)O)C(CC(OC3O[C@H](C)[C@@H](O)[C@H](N)[C@@H]3O)/C=C/C=C/C=C/C=C/CC/C=C/C=C/[C@H](C)[C@H]1O)O2 (stereo partly specified)", "0.0638 (active)"],
  ["CC(=O)OC1CC(OC(C)=O)C2(C)C(CC(OC(C)=O)C3(C)C2CCC2(C)C(c4ccoc4)OC(=O)C4OC423)C1(C)C (stereo unspecified)", "1.04 (inactive)"],
  ["Cc1cc(/C=C/c2ccc3cc(N(C)C)ccc3[n+]2C)c(C)n1-c1ccccc1", "0.776 (active)"],
  ["CC(=O)O[C@@H]1CC2C(C)(C)[C@H](O)CC[C@]2(C)C2CC[C@@]3(C)[C@H](c4ccoc4)OC(=O)[C@H]4O[C@]43[C@@]21C (stereo partly specified)", "1.05 (inactive)"],
  ["COc1cc(NS(C)(=O)=O)ccc1Nc1c2ccccc2nc2ccccc12", "0.985 (inactive)"],
  ["COc1ccc(CCC(=O)c2c(O)cc(O[C@@H]3O[C@H](CO)C(O)[C@H](O)C3O[C@@H]3O[C@@H](C)[C@H](O)[C@@H](O)[C@H]3O)cc2O)cc1O (stereo partly specified)", "1.01 (inactive)"]
]}
